Catalogue of binders with associated EC50 hGLP-1R CHO-K1 [nM] (cAMP, AlphaScreen)
Target: human glucagon-like peptide 1 receptor (GLP-1R) (human, UniProt P43220 24-463)
Test: cell-based or functional assay
*1 amine or outer side, *2 acyl side, *3 side chain or, on linkers, in order; H or OH if unused. Side-chain parts run from the residue outwards. [ ]: non-standard residue; d: D form. The star is where a group is joined. C18 diacid = O=C(O)CCCCCCCCCCCCCCCCC(=O)*; γGlu = O=C(O)[C@H](CCC(=O)[*:2])N[*:1]; Aib = CC(C)(N)C(=O)O

Reference set (2 entries):
stdin: What value of measured EC50 hGLP-1R CHO-K1 [nM] (cAMP, AlphaScreen) is listed for H-H[Aib]QGTFTSDYSKYLDK([Peg3-Peg3-γGlu-C18 diacid])RAAKDFIEWLESA-NH2 [H-H-Aib-QGTFTSDYSKYLD-K([17-carboxy-heptadecanoyl]-isoGlu-Peg3-Peg3)-RAAKDFIEWLESA-NH2] ?
stdout: 1.76 nM

stdin: What does the record list as EC50 hGLP-1R CHO-K1 [nM] (cAMP, AlphaScreen) for HXQGTFTSDYSKYLDERRAKDFIKWLESA (Ac4c at position 2; Lys 24 side chain conjugated to [17-carboxy-heptadecanoyl]-isoGlu-GSGSGG; C-terminal amide) [H-H-Ac4c-QGTFTSDYSKYLDERRAKDFI-K([17-carboxy-heptadecanoyl]-isoGlu-GSGSGG)-WLESA-NH2] ?
stdout: 0.6 nM

New cases:
stdin: Param item = HXQGTFTSDYSKYLDEKAAKDFIEWLESA (Aib at position 2; Lys 17 side chain conjugated to [17-carboxy-heptadecanoyl]-isoGlu; C-terminal amide) [H-H-Aib-QGTFTSDYSKYLDE-K([17-carboxy-heptadecanoyl]-isoGlu)-AAKDFIEWLESA-NH2] ; retrieve measured EC50 hGLP-1R CHO-K1 [nM] (cAMP, AlphaScreen).
stdout: 0.41 nM

The measurements presented in this section are drawn from patent US9896495.
